- procedureSummary: yeast display, Sf9 membrane polyspecificity reagent, FACS + sequencing; frameworks hold sequencing errors
observable: polyreactivity (PSR sort gate)

Some sequences with recorded polyreactivity (PSR sort gate):
| constructSequence | polyreactivity (PSR sort gate) |
| --- | --- |
| QVQLVESGGGLVQAGGSLRLSCAASGFISRYYGMGWYRQAPGKERELVAAISWSGGRTHYADSVKGRFTISRDNAKNTVYLQMNSLKPEDTAVYYCATDRYYRPGGEYDYWGQGTQVTVSS | high polyreactivity |
| QVQLVESGGGLVQAGGSLRLSCAASGRIFRYNAMGWYRQAPGKERELVAAISFSTTSPYYADSVKGRFTISRDNAKNTVYLQMNSLKPEDTAVYNCNTPGLPIDSEYDYWGQGTQVTVSS | low polyreactivity |
| QVQLVESGGGLVQAGGSLRLSCAASGSTFGKNAMGWSRQAPGNERELVAGITSGGSTYYADSVKGRFTISRDNAKNTVYLQMNSLKPEDTAVYYCAAVRRWKYDWGQGTQVTVSS | high polyreactivity |
| QVQLVESGGGLVQAGGSLRLSCAASVITFDVYAMGWYRPAPGKERELVAAISSVGGTYYADSVKGRFTISRDNAKNTVYLQMISLKPEDTAVYYCNTDGYVGSIRSGLYIYDYWGQGTQVTVSS | low polyreactivity |

Let us move to another entry and its polyreactivity (PSR sort gate).
Q: # input sequence: QGQLVESGGGLVQAGGSLRLSCAASGFTFPGYAMGWYRQAPGNVRELVAAITGSGGRTYYADSVKGRFTISRDNAKNTVYLQMNSLKPEDTAVYYCLARSSYNWYDYWGQGTQVTVSS ; wanted: its polyreactivity (PSR sort gate)
Ans: high polyreactivity
